Test system: human hepG2 cells
assay overview: In vitro toxicity in human hepG2 cells (AlamarBlue viability)
Assay type: cell-based
assay conditions: human hepG2 cells, 24 hours, AlamarBlue; 8 replicates; read-out: IC50
Consider the following molecules; for each one, report its IC50.

Please review the following examples before continuing.
{"molecule": "COC(=O)c1ccc(CN(Cc2ccccc2)Cc2ccccn2)nc1 [Example 186]", "measure": "IC50", "observed": "~215 µM"}
{"molecule": "O=C(c1ccc(CN(Cc2ccccn2)Cc2ccccn2)nc1)N1CCNCC1 [Example 105]", "measure": "IC50", "observed": "~210 µM"}
{"molecule": "O=C(NCCc1ccc(-n2cc(CN(Cc3ccccn3)Cc3ccccn3)nn2)cc1)[C@H]1O[C@H](O)[C@H](O)[C@@H](O)[C@H]1O [Example 101]", "measure": "IC50", "observed": "~220 µM"}
{"molecule": "O=C(Cc1ccc(-n2cc(CN(Cc3ccccn3)Cc3ccccn3)nn2)cc1)NC(CO)(CO)CO [Example 98]", "measure": "IC50", "observed": "259 µM"}
{"molecule": "O=C(Cc1ccc(-n2cc(CN(Cc3ccccn3)Cc3ccccn3)nn2)cc1)NC[C@H](O)CO [Example 104]", "measure": "IC50", "observed": "224 µM"}

**Query** Name the reported IC50 value associated with the molecule CN(C[C@H](O)[C@@H](O)[C@H](O)[C@H](O)CO)C(=O)c1ccc(CN(Cc2ccccn2)Cc2ccccn2)nc1 [Example 26]
**Result** > 1000 µM
